- Tested on: LOX IMVI melanoma
- ASSAY PROTOCOL: NCI-60 one-dose screen, 48 h (100 = growth as untreated, 0 = no growth, -100 = all killed)
- ASSAY CONDITIONS: 10 µM unless noted
About 83,000 compounds went through this panel and 20% of them were active in at least one assay; those are over-represented in the sample as a whole.
Please note: growth exactly at 60% is f. Only values below 60% get t.

Query block: growth under 60%? Item: `COC(=O)CCc1c[nH]c2ccc(N(CCCl)CCCl)cc12`
Result block: t

Query block: growth under 60%? Item: `C[C@]12CCc3nc(Nc4ccccc4F)sc3C1=CC[C@@H]1[C@@H]2CC[C@]2(C)C(=O)CC[C@@H]12`
Result block: t

Query block: growth under 60%? Item: `COc1cc(C=Nc2cccc(Br)c2)ccc1N(CCCl)CCCl`
Result block: f

Query block: growth under 60%? Item: `O=c1[nH]c2ccc([N+](=O)[O-])cc2c(=O)o1`
Result block: f

Query block: growth under 60%? Item: Cn1cccc1C1CC(=O)N(CCC[Se]C#N)C1=O (stereo unspecified)
Result block: t

Query block: growth under 60%? Item: `CNCc1cccnc1`
Result block: f

Query block: growth under 60%? Item: `Cn1cc(-c2csc(-c3cn(CCN4CCOCC4)c4ccccc34)n2)c2cccnc21`
Result block: f

Query block: growth under 60%? Item: `CC[C@H](C)[C@@H]([C@@H](CC(=O)N1CCC[C@H]1[C@H](OC)[C@@H](C)C(=O)N[C@H](C)[C@@H](O)c1ccccc1)OC)N(C)C(=O)[C@@H](NC(=O)[C@@H](NC)C(C)C)C(C)C`
Result block: t

Query block: growth under 60%? Item: `C[CH2][Sn]([Cl])([Cl])[CH2]C.Oc1ccccc1C=NCCN=Cc1ccccc1O`
Result block: f

Query block: growth under 60%? Item: `COC(=O)[C@@H](C)C[C@H](Cc1ccccc1)NC(=O)c1cccc([C@@H](C[C@H](C(C)C)N(C)C(=O)[C@@H](NC(=O)[C@H]2CCCCN2C)C(C)C)OC(C)=O)n1`
Result block: t

Query block: growth under 60%? Item: `O=C1NC(=O)C(=Cc2ccc(OCCCCC3CCCCC3)c(Cl)c2)C(=O)N1`
Result block: t
